Assay: Hydrogen peroxide (H2O2) inhibition assay (fluorescence, DCF/horseradish peroxidase)
Format: biochemical
Settings: ascorbic acid as reducing substrate; test compound 0.4 μM; lower values = greater inhibition of H2O2
Endpoint name: Fe-ASC % (cf. 0.4 uM Fe/Asc; cf. CQ, CQ = 100%) (% ASC)

Example results:
O=c1cc(CNCCN2CCOCC2)nc2c(O)cccn12: 30
O=c1cc(CNCc2ccc(OC(F)(F)F)cc2)nc2c(O)cccn12: 135
Cc1ccc(O)c2nc(CNCc3ccc(F)cc3)cc(=O)n12: 74
Cc1ccc(O)c2nc(CNCc3ccc(Cl)cc3)cc(=O)n12: 63
CN(C)Cc1cc(=O)n2cccc(O)c2n1: 55
CCCc1cnc2c(O)c(Cl)ccn2c1=O: 86

1. O=C(NCc1ccc(F)cc1F)c1cnc2c(O)cccn2c1=O
2. O=c1cc(CNCc2ccccn2)nc2c(O)cccn12
3. Cc1ccc(O)c2nc(CNCCc3ccccn3)cc(=O)n12
# input Rank the items in ascending order with respect to Fe-ASC % (cf. 0.4 uM Fe/Asc; cf. CQ, CQ = 100%). # answer = labels listed in requested order
# output 2, 1, 3

###

Assay: Hydrogen peroxide (H2O2) inhibition assay (fluorescence, DCF/horseradish peroxidase)
Assay type: biochemical
Conditions: ascorbic acid as reducing substrate; test compound 0.4 μM; lower values = greater inhibition of H2O2
Endpoint name: Fe-ASC % (cf. 0.4 uM Fe/Asc; cf. CQ, CQ = 100%) (% ASC)

COc1ccc(CNCc2cc(=O)n3cccc(O)c3n2)cc1 [Compound 1443]: 116

A. O=c1cc(CNCc2ccc(C(F)(F)F)cc2)nc2c(O)cccn12 [Compound 1455]
B. Cc1ccc(O)c2nc(CN(C)C3CCCCC3)cc(=O)n12 [Compound 1523]
C. O=c1cc(CNCC2CC2)nc2c(O)cccn12 [Compound 1411]
# input Hello, I need these entries ordered by Fe-ASC % (cf. 0.4 uM Fe/Asc; cf. CQ, CQ = 100%), highest reading first. Thanks! # answer = labels listed in requested order
# output B, A, C
(B: 135 % ASC, A: 82 % ASC, C: 36 % ASC)

1. O=c1cc(CNc2cccnc2)nc2c(O)cccn12 [Compound 1448]
2. O=C(NCc1ccc2c(c1)OCO2)c1cnc2c(O)cccn2c1=O [Compound 1432]
# input // task: argmin of Fe-ASC % (cf. 0.4 uM Fe/Asc; cf. CQ, CQ = 100%) over [ 1 , 2 ] Label of pick, please.
# output 2

I. O=c1cc(CN2CCN(Cc3ccccc3F)CC2)nc2c(O)cccn12 [Compound 1515]
II. Cc1ccc(O)c2nc(CN3CCN(Cc4ccccc4F)CC3)cc(=O)n12 [Compound 1522-]
# input Form field 'greater Fe-ASC % (cf. 0.4 uM Fe/Asc; cf. CQ, CQ = 100%)' accepts I or II ; which applies? Label of pick, please.
# output II

###

Assay: Hydrogen peroxide (H2O2) inhibition assay (fluorescence, DCF/horseradish peroxidase)
Format: biochemical
Conditions: HCl salt tested where HCl salt MW is given
pIC50: −log10 of the molar value.
Endpoint name: pIC50

1. CCCCCNC(=O)c1cnc2c(O)cccn2c1=O
2. O=C(NCc1ccc(Cl)cc1)c1cnc2c(O)cccn2c1=O
3. CN(CCc1ccccn1)Cc1cc(=O)n2cccc(O)c2n1
4. O=C(c1cnc2c(O)cccn2c1=O)N1CCCCC1
# input Place the items in sequence of falling pIC50. # answer = labels listed in requested order
# output 3, 2, 1, 4

A. O=C(NCc1ccccn1)c1cnc2c(O)cccn2c1=O
B. CN(Cc1ccc(F)cc1)Cc1cc(=O)n2cccc(O)c2n1
C. O=c1cc(CNCc2ccc(F)cc2)nc2c(O)cccn12
# input Hello, I need these entries ordered by pIC50, highest reading first. Thanks! # answer = labels listed in requested order
# output C, A, B

###

Test: Hydrogen peroxide (H2O2) inhibition assay (fluorescence, DCF/horseradish peroxidase)
Type: biochemical
Settings: HCl salt tested where HCl salt MW is given
pIC50: −log10 of the molar value.
Endpoint name: pIC50

O=C(NCCc1ccccn1)c1cnc2c(O)cccn2c1=O [Compound 1427]: 6.74
C#CCN(C)Cc1cc(=O)n2c(C)ccc(O)c2n1 [Compound 1491]: 6.52
O=c1cc(CNCC2CC2)nc2c(O)cccn12 [Compound 1411]: 6.48
O=c1cc(CNC2CCCC2)nc2c(O)cccn12 [Compound 1435]: 6.64

###

Experiment: Hydrogen peroxide (H2O2) inhibition assay (fluorescence, DCF/horseradish peroxidase)
Assay type: biochemical
Conditions: HCl salt tested where HCl salt MW is given
Endpoint name: IC50 (nM)

Example results:
Cc1ccc(O)c2nc(CN(C)Cc3cccc(F)c3)cc(=O)n12 [Compound 1525]: 320
CCCCCCNC(=O)c1cnc2c(O)cccn2c1=O [Compound 1440]: 690
CCN(CC)Cc1cc(=O)n2c(C)ccc(O)c2n1 [Compound 1490]: 400
COc1ccc(CNCc2cc(=O)n3cccc(O)c3n2)cc1 [Compound 1443]: 250
CN(C)Cc1cnc2c(O)cccn2c1=O [Compound 1424]: 800

I. Cc1ccc(O)c2nc(CN(C)C)cc(=O)n12 [Compound 1466]
II. CCCCCCCCNC(=O)c1cnc2c(O)cccn2c1=O [Compound 1394]
# input Form field 'greater IC50' accepts I or II ; which applies? Label of pick, please.
# output II

###

Test: Hydrogen peroxide (H2O2) inhibition assay (fluorescence, DCF/horseradish peroxidase)
Type: biochemical
Settings: HCl salt tested where HCl salt MW is given
Endpoint name: IC50 (nM)

Example results:
O=C(NCc1cccnc1)c1cnc2c(O)cccn2c1=O: 340
Cc1ccc(O)c2nc(CNCc3ccc(Cl)cc3)cc(=O)n12: 500
Cc1ccc(O)c2nc(CN3CCN(Cc4ccccc4F)CC3)cc(=O)n12: 440
Cc1ccc(O)c2nc(CNCC3CCCCC3)cc(=O)n12: 230
O=c1cc(CNCCN2CCOCC2)nc2c(O)cccn12: 240
CN(C)Cc1cc(=O)n2cccc(O)c2n1: 420

I. CCCNC(=O)c1cnc2c(O)cccn2c1=O
II. O=c1cc(CN2CCCCC2)nc2c(O)cccn12
# input // task: argmin of IC50 over [ I , II ] Label of pick, please.
# output I

1. COCc1cnc2c(O)cccn2c1=O
2. O=c1cc(CNCCCN2CCOCC2)nc2c(O)cccn12
# input // task: argmin of IC50 over [ 1 , 2 ] Label of pick, please.
# output 2

###

Experiment: Hydrogen peroxide (H2O2) inhibition assay (fluorescence, DCF/horseradish peroxidase)
Format: biochemical
Details: dopamine as reducing substrate; test compound 0.4 μM; lower values = greater inhibition of H2O2
Endpoint name: Fe-DA % (cf. 0.4 uM Fe/DA; cf. CQ, CQ = 100%)

Cc1ccc(CNCc2cc(=O)n3cccc(O)c3n2)cc1 [Compound 1478]: 75
Cc1ccc(O)c2nc(CNCCc3ccccn3)cc(=O)n12 [Compound 1504]: 33
CCCCN(C)Cc1cc(=O)n2cccc(O)c2n1 [Compound 1485]: 57
O=c1cc(CNCc2ccccc2)nc2c(O)cccn12 [Compound 1442]: 58
Cc1ccc(O)c2nc(CN3CCCCC3)cc(=O)n12 [Compound 1471]: 62
O=C(NCCN1CCCC1)c1cnc2c(O)cccn2c1=O [Compound 1426]: 62
Cc1ccc(O)c2nc(CNCc3ccc(Cl)cc3)cc(=O)n12 [Compound 1469]: 43
Cc1ccc(O)c2nc(CN(C)Cc3ccc(F)cc3)cc(=O)n12 [Compound 1500]: 42

A. O=C(NCc1ccccn1)c1cnc2c(O)cccn2c1=O [Compound 1447]
B. CC(C)CNC(=O)c1cnc2c(O)cccn2c1=O [Compound 1425]
C. Cc1ccc(O)c2nc(CN3CCC(C)CC3)cc(=O)n12 [Compound 1508]
# input Hello, I need these entries ordered by Fe-DA % (cf. 0.4 uM Fe/DA; cf. CQ, CQ = 100%), highest reading first. Thanks! # answer = labels listed in requested order
# output B, A, C
(B: 76%, A: 52%, C: 32%)

1. O=C(NCc1ccc(C(F)(F)F)cc1)c1cnc2c(O)cccn2c1=O [Compound 1453]
2. Cc1ccc(O)c2nc(CNC3CCCCC3)cc(=O)n12 [Compound 1468]
# input // task: argmin of Fe-DA % (cf. 0.4 uM Fe/DA; cf. CQ, CQ = 100%) over [ 1 , 2 ] Label of pick, please.
# output 2
(2: 39%, 1: 59%)

###

Assay: Hydrogen peroxide (H2O2) inhibition assay (fluorescence, DCF/horseradish peroxidase)
Type: biochemical
Conditions: HCl salt tested where HCl salt MW is given
Endpoint name: IC50 (nM)

Example results:
O=C(NCc1ccc2c(c1)OCO2)c1cnc2c(O)cccn2c1=O: 410
O=c1cc(CNc2ccc(F)cc2)nc2c(O)cccn12: 580
CCCCCNCc1cc(=O)n2cccc(O)c2n1: 190
O=c1cc(CNCCN2CCCC2)nc2c(O)cccn12: 130

A. O=c1cc(CNc2ccc(F)cc2F)nc2c(O)cccn12
B. O=C(NCc1ccc(Cl)cc1Cl)c1cnc2c(O)cccn2c1=O
# input Form field 'greater IC50' accepts A or B ; which applies? Label of pick, please.
# output B
(B: 540 nM, A: 350 nM)

Sourced from patent US20210230159A1
